Reported Activity by item:
- tested.target: Epidermal growth factor receptor (Homo sapiens) (UniProt P00533)
- Sequence (P00533 whole entry): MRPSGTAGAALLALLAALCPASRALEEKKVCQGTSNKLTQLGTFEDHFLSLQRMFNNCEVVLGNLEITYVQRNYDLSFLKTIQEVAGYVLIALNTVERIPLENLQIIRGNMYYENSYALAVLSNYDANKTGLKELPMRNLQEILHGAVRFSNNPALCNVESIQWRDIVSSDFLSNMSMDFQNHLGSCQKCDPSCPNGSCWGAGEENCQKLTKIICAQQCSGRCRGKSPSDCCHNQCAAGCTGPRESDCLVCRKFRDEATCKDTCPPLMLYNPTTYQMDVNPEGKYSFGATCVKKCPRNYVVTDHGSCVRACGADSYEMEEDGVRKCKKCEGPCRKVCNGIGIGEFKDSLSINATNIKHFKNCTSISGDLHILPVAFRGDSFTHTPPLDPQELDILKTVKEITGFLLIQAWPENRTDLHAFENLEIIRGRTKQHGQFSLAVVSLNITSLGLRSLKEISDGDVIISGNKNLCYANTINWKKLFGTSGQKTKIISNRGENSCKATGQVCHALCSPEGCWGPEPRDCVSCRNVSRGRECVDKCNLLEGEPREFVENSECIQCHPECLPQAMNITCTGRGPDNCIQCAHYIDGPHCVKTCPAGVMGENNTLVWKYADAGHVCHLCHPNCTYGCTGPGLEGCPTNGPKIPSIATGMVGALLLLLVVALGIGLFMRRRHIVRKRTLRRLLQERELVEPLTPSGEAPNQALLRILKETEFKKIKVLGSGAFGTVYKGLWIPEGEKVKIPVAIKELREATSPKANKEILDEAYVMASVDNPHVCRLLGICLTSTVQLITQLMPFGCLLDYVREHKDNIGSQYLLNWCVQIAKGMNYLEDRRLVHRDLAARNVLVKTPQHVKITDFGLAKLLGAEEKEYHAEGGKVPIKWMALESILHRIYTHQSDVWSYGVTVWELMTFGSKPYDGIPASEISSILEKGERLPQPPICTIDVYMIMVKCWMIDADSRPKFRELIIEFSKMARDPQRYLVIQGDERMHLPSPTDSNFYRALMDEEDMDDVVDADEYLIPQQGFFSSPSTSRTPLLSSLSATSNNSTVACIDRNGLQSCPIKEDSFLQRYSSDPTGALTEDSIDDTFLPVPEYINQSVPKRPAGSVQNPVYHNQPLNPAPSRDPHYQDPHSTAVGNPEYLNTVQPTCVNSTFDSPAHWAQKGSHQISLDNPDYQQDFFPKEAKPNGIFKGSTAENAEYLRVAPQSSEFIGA
- protocol.notes: Inhibition of wild-type EGFR (unknown origin) assessed as enzyme residual activity at 10 uM for 60 mins by microplate scintillation counter in presence of [gamma-33P]-ATP
measured.quantity: Activity (%)

* Cn1c(=O)c(-c2c(Br)cccc2Br)cc2c(N)nc(Nc3ccccc3)nc21 | 3
* Cn1c(=O)c(-c2ccccc2)cc2c(N)nc(Nc3ccccc3)nc21 | 49
* Cn1c(=O)c(-c2c(F)cccc2C(F)(F)F)cc2c(N)nc(Nc3ccccc3)nc21 | 61
* Cn1c(=O)c(-c2c(Cl)cccc2Cl)cc2c(N)nc(Nc3ccccc3)nc21 | 14
